molecular target: T1, Recombinant Human TNF-α/TNFSF1A (human, UniProt P01375 77-233); test: SPR (BIACORE), antibody captured, TNFα in solution
T1 construct: also called hTNF-α; huTNFα
T1 sequence (P01375 77-233 limits assumed): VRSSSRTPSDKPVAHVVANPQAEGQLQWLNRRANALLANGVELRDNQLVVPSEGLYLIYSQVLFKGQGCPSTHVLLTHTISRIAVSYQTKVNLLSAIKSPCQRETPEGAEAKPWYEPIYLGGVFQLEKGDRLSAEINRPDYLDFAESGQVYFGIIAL
measure name: Kd (nM)
Output spec: scalar in nM, unitless text.

(Q) Name the reported Kd value associated with the binder AB353 (antibody, V domains shown, Full-length humanized antibody made in HEK 293-6E; also called hMAK199VH.1/hMAK199VL.1b) VH: EVQLVQSGSELKKPGASVKVSCKASGYTFTNYGMNWVRQAPGQGLEWMGWINTYTGEPTYADDFKGRFVFSLDTSVSTAYLQISSLKAEDTAVYYCARKFLTTVVVTDYAMDYWGQGTTVTVSS VL: DIQMTQSPSSLSASVGDRVTITCRASQDISNYLNWYQQKPGKAPKLLIYYTSRLQSGVPSRFSGSGSGTDYTLTISSLQPEDFATYYCQQGNTLPPTFGQGTKLEIK
(A) 0.46
